System: Pseudomonas aeruginosa ATCC 27853
protocol: MBEC assay, biofilm inhibition (prevention of biofilm formation), MBEC bioFILM PA panel
Assay type: cell-based
test_parameters: with 0.05% compound 6 in 5% EtOH/PBS
reported_metric: MBEC-Biofilm Inhibition, With 0.05% compound 6 in 5% EtOH/PBS

- molecule: "NCC[C@H](O)C(=O)N[C@@H]1C[C@H](N)[C@@H](O[C@H]2O[C@H](CN)[C@@H](O)[C@H](O)[C@H]2O)[C@H](O)[C@H]1O[C@H]1O[C@H](CO)[C@@H](O)[C@H](N)[C@H]1O"
  assay_value: ">8"
- molecule: "O=C(N[C@H](CO)[C@H](O)c1ccc([N+](=O)[O-])cc1)C(Cl)Cl"
  assay_value: ">4"
- molecule: "C[C@H]1[C@H](NC(=O)/C(=N\\OC(C)(C)C(=O)O)c2csc(N)n2)C(=O)N1S(=O)(=O)O"
  assay_value: ">4"
- molecule: "CC(C)(O/N=C(\\C(=O)N[C@@H]1C(=O)N2C(C(=O)[O-])=C(C[n+]3ccccc3)CS[C@H]12)c1csc(N)n1)C(=O)O"
  assay_value: ">4"
- molecule: "O=C(O)c1cn(C2CC2)c2cc(N3CCNCC3)c(F)cc2c1=O"
  assay_value: ">0.5"
- molecule: "CO/N=C(\\C(=O)N[C@@H]1C(=O)N2C(C(=O)[O-])=C(C[N+]3(C)CCCC3)CS[C@H]12)c1csc(N)n1 [CPE, cefepime]"
  assay_value: ">4"
- molecule: "C[C@@H](O)[C@H]1C(=O)N2C(C(=O)O)=C(S[C@@H]3CN[C@H](C(=O)N(C)C)C3)[C@H](C)[C@H]12"
  assay_value: ">2"
- molecule: "NC[C@H]1O[C@H](O[C@H]2[C@H](O)[C@@H](O[C@H]3O[C@H](CO)[C@@H](O)[C@H](N)[C@H]3O)[C@H](N)C[C@@H]2N)[C@H](N)C[C@@H]1O"
  assay_value: ">2"

---

Test system: Pseudomonas aeruginosa ATCC 27853
protocol: MBEC assay, biofilm inhibition (prevention of biofilm formation), MBEC bioFILM PA panel
Format: cell-based
test_parameters: with 0.1% w/v compound 9 in PBS
reported_metric: MBEC-Biofilm Inhibition, With 0.1% w/v compound 9 in PBS

- chemical_structure: "C[C@@H](O)[C@H]1C(=O)N2C(C(=O)O)=C(S[C@@H]3CN[C@H](C(=O)N(C)C)C3)[C@H](C)[C@H]12"
  assay_value: ">2"
- chemical_structure: "NCC[C@H](O)C(=O)N[C@@H]1C[C@H](N)[C@@H](O[C@H]2O[C@H](CN)[C@@H](O)[C@H](O)[C@H]2O)[C@H](O)[C@H]1O[C@H]1O[C@H](CO)[C@@H](O)[C@H](N)[C@H]1O"
  assay_value: ">8"
- chemical_structure: "NC[C@H]1O[C@H](O[C@H]2[C@H](O)[C@@H](O[C@H]3O[C@H](CO)[C@@H](O)[C@H](N)[C@H]3O)[C@H](N)C[C@@H]2N)[C@H](N)C[C@@H]1O"
  assay_value: ">2"
- chemical_structure: "CC(C)(O/N=C(\\C(=O)N[C@@H]1C(=O)N2C(C(=O)[O-])=C(C[n+]3ccccc3)CS[C@H]12)c1csc(N)n1)C(=O)O"
  assay_value: ">4"
- chemical_structure: "O=C(N[C@H](CO)[C@H](O)c1ccc([N+](=O)[O-])cc1)C(Cl)Cl"
  assay_value: ">4"
- chemical_structure: "C[C@H]1[C@H](NC(=O)/C(=N\\OC(C)(C)C(=O)O)c2csc(N)n2)C(=O)N1S(=O)(=O)O"
  assay_value: ">4"

---

Tested on: Pseudomonas aeruginosa ATCC 27853
protocol: MBEC assay, biofilm inhibition (prevention of biofilm formation), MBEC bioFILM PA panel
Assay type: cell-based
test_parameters: antibiotic alone
MBEC-Biofilm Inhibition, Without compound 1 values for the compounds below.
reported_metric: MBEC-Biofilm Inhibition, Without compound 1

- compound: "NC[C@H]1O[C@H](O[C@H]2[C@H](O)[C@@H](O[C@H]3O[C@H](CO)[C@@H](O)[C@H](N)[C@H]3O)[C@H](N)C[C@@H]2N)[C@H](N)C[C@@H]1O"
  assay_value: ">2"
- compound: "C[C@H]1[C@H](NC(=O)/C(=N\\OC(C)(C)C(=O)O)c2csc(N)n2)C(=O)N1S(=O)(=O)O"
  assay_value: ">4"
- compound: "O=C(N[C@H](CO)[C@H](O)c1ccc([N+](=O)[O-])cc1)C(Cl)Cl"
  assay_value: ">4"
- compound: "NCC[C@H](O)C(=O)N[C@@H]1C[C@H](N)[C@@H](O[C@H]2O[C@H](CN)[C@@H](O)[C@H](O)[C@H]2O)[C@H](O)[C@H]1O[C@H]1O[C@H](CO)[C@@H](O)[C@H](N)[C@H]1O"
  assay_value: ">8"
- compound: "CO/N=C(\\C(=O)N[C@@H]1C(=O)N2C(C(=O)[O-])=C(C[N+]3(C)CCCC3)CS[C@H]12)c1csc(N)n1 [CPE, cefepime]"
  assay_value: ">4"
- compound: "CC(C)(O/N=C(\\C(=O)N[C@@H]1C(=O)N2C(C(=O)[O-])=C(C[n+]3ccccc3)CS[C@H]12)c1csc(N)n1)C(=O)O"
  assay_value: ">4"
- compound: "C[C@@H](O)[C@H]1C(=O)N2C(C(=O)O)=C(S[C@@H]3CN[C@H](C(=O)N(C)C)C3)[C@H](C)[C@H]12"
  assay_value: ">2"
- compound: "O=C(O)c1cn(C2CC2)c2cc(N3CCNCC3)c(F)cc2c1=O"
  assay_value: ">0.5"

---

MBEC-Biofilm Inhibition, With 0.01% compound 2 in 5% EtOH/PBS values for the compounds below.
System: Pseudomonas aeruginosa ATCC 27853
protocol: MBEC assay, biofilm inhibition (prevention of biofilm formation), MBEC bioFILM PA panel
Assay type: cell-based
test_parameters: with 0.01% compound 2 in 5% EtOH/PBS
reported_metric: MBEC-Biofilm Inhibition, With 0.01% compound 2 in 5% EtOH/PBS

- compound: "C[C@@H](O)[C@H]1C(=O)N2C(C(=O)O)=C(S[C@@H]3CN[C@H](C(=O)N(C)C)C3)[C@H](C)[C@H]12"
  assay_value: ">2"
- compound: "NCC[C@H](O)C(=O)N[C@@H]1C[C@H](N)[C@@H](O[C@H]2O[C@H](CN)[C@@H](O)[C@H](O)[C@H]2O)[C@H](O)[C@H]1O[C@H]1O[C@H](CO)[C@@H](O)[C@H](N)[C@H]1O"
  assay_value: "2-8"
- compound: "O=C(O)c1cn(C2CC2)c2cc(N3CCNCC3)c(F)cc2c1=O"
  assay_value: 0.5
- compound: "CC(C)(O/N=C(\\C(=O)N[C@@H]1C(=O)N2C(C(=O)[O-])=C(C[n+]3ccccc3)CS[C@H]12)c1csc(N)n1)C(=O)O"
  assay_value: ">4"
- compound: "CO/N=C(\\C(=O)N[C@@H]1C(=O)N2C(C(=O)[O-])=C(C[N+]3(C)CCCC3)CS[C@H]12)c1csc(N)n1 [CPE, cefepime]"
  assay_value: ">4"

---

Tested on: Pseudomonas aeruginosa ATCC 27853
protocol: MBEC assay, biofilm elimination, MBEC bioFILM PA panel
Type: cell-based
test_parameters: with 0.05% compound 6 in 5% EtOH/PBS
reported_metric: MBEC-Biofilm Elimination, With 0.05% compound 6 in 5% EtOH/PBS

- chemical_structure: "C[C@@H](O)[C@H]1C(=O)N2C(C(=O)O)=C(S[C@@H]3CN[C@H](C(=O)N(C)C)C3)[C@H](C)[C@H]12"
  assay_value: ">1"
- chemical_structure: "NCC[C@H](O)C(=O)N[C@@H]1C[C@H](N)[C@@H](O[C@H]2O[C@H](CN)[C@@H](O)[C@H](O)[C@H]2O)[C@H](O)[C@H]1O[C@H]1O[C@H](CO)[C@@H](O)[C@H](N)[C@H]1O"
  assay_value: ">8"
- chemical_structure: "NC[C@H]1O[C@H](O[C@H]2[C@H](O)[C@@H](O[C@H]3O[C@H](CO)[C@@H](O)[C@H](N)[C@H]3O)[C@H](N)C[C@@H]2N)[C@H](N)C[C@@H]1O"
  assay_value: ">2"

---

System: Pseudomonas aeruginosa ATCC 27853
protocol: MBEC assay, biofilm inhibition (prevention of biofilm formation), MBEC bioFILM PA panel
Format: cell-based
test_parameters: with 0.01% compound 2 in 5% EtOH/PBS
MBEC-Biofilm Inhibition, With 0.01% compound 2 in 5% EtOH/PBS values for the molecules below.
reported_metric: MBEC-Biofilm Inhibition, With 0.01% compound 2 in 5% EtOH/PBS

- chemical_structure: "O=C(N[C@H](CO)[C@H](O)c1ccc([N+](=O)[O-])cc1)C(Cl)Cl"
  experimental_system: "Pseudomonas aeruginosa ATCC 27853"
  assay_value: ">4"
- chemical_structure: "C[C@H]1[C@H](NC(=O)/C(=N\\OC(C)(C)C(=O)O)c2csc(N)n2)C(=O)N1S(=O)(=O)O"
  experimental_system: "Pseudomonas aeruginosa ATCC 27853"
  assay_value: ">4"
- chemical_structure: "NC[C@H]1O[C@H](O[C@H]2[C@H](O)[C@@H](O[C@H]3O[C@H](CO)[C@@H](O)[C@H](N)[C@H]3O)[C@H](N)C[C@@H]2N)[C@H](N)C[C@@H]1O"
  experimental_system: "Pseudomonas aeruginosa ATCC 27853"
  assay_value: ">2"
